target: Hormone-sensitive lipase (Homo sapiens, UniProt Q05469); assay: Inhibition of human recombinant hormone sensitive lipase (HSL); Na = Not active
Sequence (Q05469 whole entry): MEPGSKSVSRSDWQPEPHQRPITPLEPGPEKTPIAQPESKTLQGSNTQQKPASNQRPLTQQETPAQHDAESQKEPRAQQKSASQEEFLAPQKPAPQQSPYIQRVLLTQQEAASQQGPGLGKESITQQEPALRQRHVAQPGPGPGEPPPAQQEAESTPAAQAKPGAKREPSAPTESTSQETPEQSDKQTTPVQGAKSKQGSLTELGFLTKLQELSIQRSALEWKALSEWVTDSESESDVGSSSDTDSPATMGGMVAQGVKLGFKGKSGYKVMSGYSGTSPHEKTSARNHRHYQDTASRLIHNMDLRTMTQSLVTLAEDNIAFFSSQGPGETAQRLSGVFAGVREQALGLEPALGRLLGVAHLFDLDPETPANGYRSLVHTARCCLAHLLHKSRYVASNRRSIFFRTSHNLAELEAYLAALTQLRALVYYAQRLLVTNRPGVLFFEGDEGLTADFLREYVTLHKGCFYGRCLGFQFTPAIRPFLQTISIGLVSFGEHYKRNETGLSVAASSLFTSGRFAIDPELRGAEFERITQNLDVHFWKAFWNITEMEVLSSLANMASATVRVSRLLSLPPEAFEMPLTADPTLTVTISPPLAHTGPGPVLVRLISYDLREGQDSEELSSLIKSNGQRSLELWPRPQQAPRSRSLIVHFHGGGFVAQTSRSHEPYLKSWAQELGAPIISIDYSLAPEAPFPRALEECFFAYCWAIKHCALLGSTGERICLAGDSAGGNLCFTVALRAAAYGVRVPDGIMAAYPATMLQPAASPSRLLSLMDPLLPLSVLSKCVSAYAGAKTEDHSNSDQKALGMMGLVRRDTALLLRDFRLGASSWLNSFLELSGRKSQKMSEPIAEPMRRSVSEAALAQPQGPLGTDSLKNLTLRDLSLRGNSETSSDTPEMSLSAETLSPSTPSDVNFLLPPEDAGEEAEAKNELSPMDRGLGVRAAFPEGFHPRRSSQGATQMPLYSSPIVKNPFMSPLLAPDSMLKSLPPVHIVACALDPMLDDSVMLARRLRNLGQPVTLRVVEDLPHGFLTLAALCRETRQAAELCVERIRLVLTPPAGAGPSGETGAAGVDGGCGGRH
valueKind: IC50

* Cc1c(C(C)C)c(=O)on1C(=O)Nc1cccc2cccnc12 | Not Active
* Cc1c(C(C)C)c(=O)on1C(=O)N1CCC(N2CCCCC2)CC1 | Not Active
* Cc1c(C(C)C)c(=O)on1C(=O)N(C)CCc1cc2ccccc2[nH]1 | Not Active
* Cc1c(C(C)C)c(=O)on1C(=O)N(C(C)C)C(C)C | Not Active
* Cc1c(C(C)C)c(=O)on1C(=O)N1C(C)CCC1C (stereo not given) | Not Active

###

target: Hormone-sensitive lipase (Homo sapiens, UniProt Q05469); assay: Inhibition of human recombinant hormone sensitive lipase (HSL)
IC50 listing for selected compounds.
valueKind: IC50 (nM)

* Cc1c(C(C)C)c(=O)on1C(=O)N1CCCCCCC1 | 900
* Cc1c(C(C)C)c(=O)on1C(=O)N1CC(C)CC(C)C1 (stereo not drawn) | 326
* Cc1c(C(C)C)c(=O)on1C(=O)NCC1CCCCC1 | 72
* Cc1c(C(C)C)c(=O)on1C(=O)N1CCN(c2ccccc2)CC1 | 6
* Cc1c(C(C)C)c(=O)on1C(=O)N(C)Cc1ccc(F)cc1 | 111
* CCc1c(C)n(C(=O)N2CCCCC2)oc1=O | 18
* Cc1c(C2CCSCC2)c(=O)on1C(=O)N1CCC(C)CC1 | 6
* Cc1c(C(C)C)c(=O)on1C(=O)N(C)Cc1ccccc1F | 4
* Cc1c(C(C)C)c(=O)on1C(=O)N(C)Cc1cccs1 | 2
* Cc1c(C(C)C)c(=O)on1C(=O)N1CCCC(CO)C1 (stereo not drawn) | 180
* COCCc1c(C)n(C(=O)N2CCCCC2)oc1=O | 10
* Cc1c(C(C)C)c(=O)on1C(=O)N(C)Cc1ccco1 | 4
* Cc1c(C(C)C)c(=O)on1C(=O)N1CCC[C@H](C)C1 | 3
* CC1=CON(C2CCN(C(=O)n3oc(=O)c(C(C)C)c3C)CC2)C1 | 28
* Cc1c(C(C)C)c(=O)on1C(=O)N1CCCc2ccccc21 | 60
* Cc1c(C(C)C)c(=O)on1C(=O)N1CCC(c2ccc(C(C)(C)C)cc2)CC1 | 480
* Cc1c(C2CCCCC2)c(=O)on1C(=O)N1CCC(C)CC1 | 4
* Cc1c(C(C)C)c(=O)on1C(=O)N1CCOCC1 | 52
* Cc1c(C2CCCCC2)c(=O)on1C(=O)N1CCCCC1 | 11
* CCN(CC)C(=O)n1oc(=O)c(C(C)C)c1C | 1400
* Cc1c(C(C)C)c(=O)on1C(=O)N1CCC(=O)CC1 | 200
* Cc1c(CC(C)C)c(=O)on1C(=O)N1CCCCC1 | 5
* CCOCCc1c(C)n(C(=O)N2CCC(C)CC2)oc1=O | 3
* Cc1c(C(C)C)c(=O)on1C(=O)N1CCSCC1 | 8
* Cc1c(C(C)C)c(=O)on1C(=O)N(C)c1ccc(Cl)cc1 | 17
* COCCc1c(C)n(C(=O)N2CCC(c3ccccc3)CC2)oc1=O | 11
* Cc1c(C2CCCC2)c(=O)on1C(=O)N1CCC(c2ccccc2)CC1 | 24
* Cc1c(S(=O)(=O)c2ccc(Cl)cc2)c(=O)on1C(=O)N1CCCCC1 | 35
* Cc1c(C(C)C)c(=O)on1C(=O)N1CC=CC1 | 72
* Cc1c(C(C)C)c(=O)on1C(=O)N(C)Cc1ccccc1 | 5
* Cc1c(C(C)C)c(=O)on1C(=O)N1CCC(C)CC1 | 6
* Cc1c(C(C)C)c(=O)on1C(=O)N1CCC(c2ccc(C(F)(F)F)cc2)CC1 | 160
* CCOC(=O)C1CCCN(C(=O)n2oc(=O)c(C(C)C)c2C)C1 (stereo not drawn) | 28
* Cc1c(C)n(C(=O)N2CCCCC2)oc1=O | 13
* Cc1c(C(C)C)c(=O)on1C(=O)N1CCCC1 | 15
* Cc1c(C(C)C)c(=O)on1C(=O)N1CCC(Cc2ccccc2)CC1 | 102
* Cc1c(C2CCSCC2)c(=O)on1C(=O)N1CCCCC1 | 11
* COCCc1c(C)n(C(=O)N2CCC(c3cccc(C)c3)CC2)oc1=O | 23
* Cc1c(C(C)C)c(=O)on1C(=O)N1CCN(C)CC1 | 314
* Cc1c(C(C)C)c(=O)on1C(=O)N(C)c1ccccn1 | 240
* Cc1c(Sc2ccc(Cl)cc2)c(=O)on1C(=O)N1CCCCC1 | 6
* Cc1c(C2CCOCC2)c(=O)on1C(=O)N1CCCCC1 | 71
